Data origin: the supplement of paper PMC10307832

tested on: NCI-H2342; assay: relative viability (nuclei count vs DMSO), 5 days (fraction); higher = more cells survive; settings: first compound 1 µM
Measure Name: relative viability

>>> numeric_result("O=c1cc(N2CCOCC2)oc2c(-c3cccc4c3sc3ccccc34)cccc12 + O=C(CCCCCCC(=O)Nc1ccccc1)NO [Vorinostat] (partner 1 µM)")
0.637
>>> numeric_result("CCN(CC)CCCCNc1ncc2cc(-c3cc(OC)cc(OC)c3)c(NC(=O)NC(C)(C)C)nc2n1 + Cc1cc(Nc2cc(N3CCN(C)CC3)nc(Sc3ccc(NC(=O)C4CC4)cc3)n2)n[nH]1 [Tozasertib] (partner 0.1 µM)")
0.537
>>> numeric_result("O=c1cc(N2CCOCC2)oc2c(-c3cccc4c3sc3ccccc34)cccc12 + CC(=O)Nc1cccc(-n2c(=O)n(C3CC3)c(=O)c3c(Nc4ccc(I)cc4F)n(C)c(=O)c(C)c32)c1 [Trametinib] (partner 0.02 µM)")
0.833
>>> numeric_result("O=c1cc(N2CCOCC2)oc2c(-c3cccc4c3sc3ccccc34)cccc12 + COc1cc2c(Oc3ccc(NC(=O)C4(C(=O)Nc5ccc(F)cc5)CC4)cc3F)ccnc2cc1OCCCN1CCOCC1 [Foretinib] (partner 0.25 µM)")
1.07
